Biological target: CDK9/Cyclin T1 (Homo sapiens (Human))
Assay: CDK9 enzyme assay (LANCE ULight TR-FRET kinase assay)
Details: 1000 μM ATP, 100 nM ULight MBP, kinase reaction 1 hour
READOUT_NAME: IC50

[
  {
    "COMPOUND": "CN1Cc2c(C3=CCN(CC(=O)N4CC[C@H](O)C4)CC3)[nH]c3nccc(c23)-c2cc(F)ccc21 [Example 42]",
    "TEST_SYSTEM": "CDK9/Cyclin T1 (Homo sapiens (Human))",
    "OBSERVED_RESULT": "48 nM"
  },
  {
    "COMPOUND": "CCOC(=O)NS(=O)(=O)N1CC=C(c2[nH]c3nccc4c3c2CN(C)c2ccc(F)cc2-4)CC1 [Example 3]",
    "TEST_SYSTEM": "CDK9/Cyclin T1 (Homo sapiens (Human))",
    "OBSERVED_RESULT": "47 nM"
  },
  {
    "COMPOUND": "CN1Cc2c(C3=CCN(CC(=O)O)CC3)[nH]c3ncc(F)c(c23)-c2cc(F)ccc21 [Example 67]",
    "TEST_SYSTEM": "CDK9/Cyclin T1 (Homo sapiens (Human))",
    "OBSERVED_RESULT": "48 nM"
  },
  {
    "COMPOUND": "CN1Cc2c(C3=CCNCC3)[nH]c3nccc(c23)-c2cc(F)ccc21 [Example 1]",
    "TEST_SYSTEM": "CDK9/Cyclin T1 (Homo sapiens (Human))",
    "OBSERVED_RESULT": "21 nM"
  },
  {
    "COMPOUND": "CN1Cc2c(C3=CCN(CC(=O)N(C)C4CC(O)C4)CC3)[nH]c3nccc(c23)-c2cc(F)c(F)cc21 (centres unmarked) [Example 148]",
    "TEST_SYSTEM": "CDK9/Cyclin T1 (Homo sapiens (Human))",
    "OBSERVED_RESULT": "53 nM"
  },
  {
    "COMPOUND": "CN1Cc2c(C3=CCN(C4CC(C(=O)O)C4)CC3)[nH]c3ncc(F)c(c23)-c2cc(F)ccc21 (centres unmarked) [Example 193]",
    "TEST_SYSTEM": "CDK9/Cyclin T1 (Homo sapiens (Human))",
    "OBSERVED_RESULT": "76 nM"
  },
  {
    "COMPOUND": "CCOC(=O)C1CC=C(c2[nH]c3nccc4c3c2CN(C)c2ccc(F)cc2-4)CC1 (centres unmarked) [Example 61]",
    "TEST_SYSTEM": "CDK9/Cyclin T1 (Homo sapiens (Human))",
    "OBSERVED_RESULT": "400 nM"
  },
  {
    "COMPOUND": "CN(C)C(=O)CN1CC=C(c2[nH]c3nccc4c3c2CN(C)c2ncccc2-4)CC1 [Example 149]",
    "TEST_SYSTEM": "CDK9/Cyclin T1 (Homo sapiens (Human))",
    "OBSERVED_RESULT": "110 nM"
  },
  {
    "COMPOUND": "CN1Cc2c(C3=C[C@H]4CC[C@@H](C3)N4CC(=O)O)[nH]c3nccc(c23)-c2cc(F)ccc21 [Example 58]",
    "TEST_SYSTEM": "CDK9/Cyclin T1 (Homo sapiens (Human))",
    "OBSERVED_RESULT": "170 nM"
  },
  {
    "COMPOUND": "CN1Cc2c(C3=CCN(C4CC(CC(=O)O)C4)CC3)[nH]c3nccc(c23)-c2cc(F)ccc21 (centres unmarked) [Example 140]",
    "TEST_SYSTEM": "CDK9/Cyclin T1 (Homo sapiens (Human))",
    "OBSERVED_RESULT": "42 nM"
  },
  {
    "COMPOUND": "CN1Cc2c(C3=CC4CCCC(C3)N4CC(=O)N3CCC[C@H]3CO)[nH]c3nccc(c23)-c2cc(F)ccc21 (some centres unmarked) [Example 104]",
    "TEST_SYSTEM": "CDK9/Cyclin T1 (Homo sapiens (Human))",
    "OBSERVED_RESULT": "57 nM"
  },
  {
    "COMPOUND": "CN1Cc2c(C3=CCC(N[C@@H](CO)C(=O)O)CC3)[nH]c3nccc(c23)-c2cc(F)ccc21 (some centres unmarked) [Example 38]",
    "TEST_SYSTEM": "CDK9/Cyclin T1 (Homo sapiens (Human))",
    "OBSERVED_RESULT": "91 nM"
  },
  {
    "COMPOUND": "CNC(=O)N1CC2C=C(c3[nH]c4nccc5c4c3CN(C)c3ccc(F)cc3-5)CC2C1 (centres unmarked) [Example 76]",
    "TEST_SYSTEM": "CDK9/Cyclin T1 (Homo sapiens (Human))",
    "OBSERVED_RESULT": "41 nM"
  },
  {
    "COMPOUND": "CN1Cc2c(C3=CCN(C4CCC(C(C)(C)C(=O)O)CC4)CC3)[nH]c3nccc(c23)-c2cc(F)ccc21 (centres unmarked) [Example 185]",
    "TEST_SYSTEM": "CDK9/Cyclin T1 (Homo sapiens (Human))",
    "OBSERVED_RESULT": "130 nM"
  },
  {
    "COMPOUND": "CN1Cc2c(C3=CCN([C@H]4CC[C@H](CC(=O)O)CC4)CC3)[nH]c3nccc(c23)-c2cc(F)c(F)cc21 [Example 146]",
    "TEST_SYSTEM": "CDK9/Cyclin T1 (Homo sapiens (Human))",
    "OBSERVED_RESULT": "82 nM"
  },
  {
    "COMPOUND": "CNC(=O)C1CC=C(c2[nH]c3nccc4c3c2CN(C)c2ccc(F)cc2-4)CC1 (centres unmarked) [Example 52]",
    "TEST_SYSTEM": "CDK9/Cyclin T1 (Homo sapiens (Human))",
    "OBSERVED_RESULT": "63 nM"
  },
  {
    "COMPOUND": "CN1Cc2c(C3=CCN(CC(=O)N4CCC[C@H]4CO)CC3)[nH]c3ncc(F)c(c23)-c2cc(F)ccc21 [Example 70]",
    "TEST_SYSTEM": "CDK9/Cyclin T1 (Homo sapiens (Human))",
    "OBSERVED_RESULT": "86 nM"
  }
]

----------
Target: CDK9/Cyclin T1 (Homo sapiens (Human))
Experiment: CDK9 enzyme assay (LANCE ULight TR-FRET kinase assay)
Settings: 1000 μM ATP, 100 nM ULight MBP, kinase reaction 1 hour
Property: IC50; scope: individual compounds

[
  {
    "COMPOUND": "CN(C)C(=O)CN1CC=C(c2[nH]c3nccc4c3c2CN(C)c2ccc(F)cc2-4)CC1",
    "TEST_SYSTEM": "CDK9/Cyclin T1 (Homo sapiens (Human))",
    "QUANTITY_UNIT": "nM",
    "IC50": 51
  },
  {
    "COMPOUND": "CC(C)[C@H](NC1CC=C(c2[nH]c3nccc4c3c2CN(C)c2ccc(F)cc2-4)CC1)C(=O)O (stereo partly shown)",
    "TEST_SYSTEM": "CDK9/Cyclin T1 (Homo sapiens (Human))",
    "QUANTITY_UNIT": "nM",
    "IC50": 120
  },
  {
    "COMPOUND": "CN1Cc2c(C3=CCCN(S(C)(=O)=O)C3)[nH]c3nccc(c23)-c2cc(F)ccc21",
    "TEST_SYSTEM": "CDK9/Cyclin T1 (Homo sapiens (Human))",
    "QUANTITY_UNIT": "nM",
    "IC50": 130
  },
  {
    "COMPOUND": "CN1Cc2c(C3=CC4CCCC(C3)N4S(C)(=O)=O)[nH]c3nccc(c23)-c2cc(F)ccc21 (stereo not shown)",
    "TEST_SYSTEM": "CDK9/Cyclin T1 (Homo sapiens (Human))",
    "QUANTITY_UNIT": "nM",
    "IC50": 400
  }
]

----------
Molecular target: CDK9/Cyclin T1 (Homo sapiens (Human), UniProt P50750)
Sequence (P50750 whole entry): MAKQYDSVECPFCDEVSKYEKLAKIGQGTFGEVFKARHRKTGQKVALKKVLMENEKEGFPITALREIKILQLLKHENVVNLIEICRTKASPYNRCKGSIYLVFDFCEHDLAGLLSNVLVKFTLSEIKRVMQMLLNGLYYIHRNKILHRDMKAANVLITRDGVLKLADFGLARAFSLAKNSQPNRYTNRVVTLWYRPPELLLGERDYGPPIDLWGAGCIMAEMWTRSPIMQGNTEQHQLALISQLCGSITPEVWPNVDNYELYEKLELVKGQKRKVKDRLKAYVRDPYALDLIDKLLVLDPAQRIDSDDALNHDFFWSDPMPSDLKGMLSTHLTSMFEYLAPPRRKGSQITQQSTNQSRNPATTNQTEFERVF
Sequence (O60563 whole entry partner): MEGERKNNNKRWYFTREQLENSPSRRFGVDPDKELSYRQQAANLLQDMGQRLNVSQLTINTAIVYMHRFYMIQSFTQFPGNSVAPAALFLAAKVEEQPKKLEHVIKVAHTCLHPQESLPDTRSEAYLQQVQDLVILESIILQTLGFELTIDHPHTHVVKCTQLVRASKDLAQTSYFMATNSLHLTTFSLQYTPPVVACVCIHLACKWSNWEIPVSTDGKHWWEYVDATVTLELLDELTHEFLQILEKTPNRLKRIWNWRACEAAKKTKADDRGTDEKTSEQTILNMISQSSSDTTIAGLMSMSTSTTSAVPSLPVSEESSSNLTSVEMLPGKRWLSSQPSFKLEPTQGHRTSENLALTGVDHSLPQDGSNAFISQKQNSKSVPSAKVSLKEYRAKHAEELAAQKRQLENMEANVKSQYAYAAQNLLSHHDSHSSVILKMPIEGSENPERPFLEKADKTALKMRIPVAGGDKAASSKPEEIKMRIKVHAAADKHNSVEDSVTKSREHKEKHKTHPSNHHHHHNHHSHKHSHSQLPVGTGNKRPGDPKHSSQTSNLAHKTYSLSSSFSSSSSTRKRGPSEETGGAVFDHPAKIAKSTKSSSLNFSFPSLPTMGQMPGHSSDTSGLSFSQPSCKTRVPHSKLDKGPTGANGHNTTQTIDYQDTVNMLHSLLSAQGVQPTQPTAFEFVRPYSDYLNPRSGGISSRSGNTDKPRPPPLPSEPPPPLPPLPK
Experiment: CDK9 enzyme assay (LANCE ULight TR-FRET kinase assay)
Assay type: biochemical
Details: 1000 μM ATP, 100 nM ULight MBP, kinase reaction 1 hour
Description: CDK9 enzyme activities were measured using LANCE ULight TR-FRET kinase assay reagents (PerkinElmer, Waltham, Mass.). Compounds were diluted in 100% DMSO then diluted with 1:10 in serine/threonine kinase assay buffer containing 20 mM HEPES, 10 mM MgCl2, […], and 0.0075% Triton X-100. […] The reaction was incubated for 1 hour and the signal was read in Envision in TR-FRET mode (excitation at 320 nm and emission at 615/665 nm).
pIC50: −log10 of the molar value.

[
  {
    "MOLECULE": "CN1Cc2c(C3=CCC(N[C@@H](Cc4ccccc4)C(=O)O)CC3)[nH]c3nccc(c23)-c2cc(F)ccc21 (stereo partly shown)",
    "pIC50": 7.21
  },
  {
    "MOLECULE": "CN1Cc2c(C3=CCN([C@H]4CC[C@H](C(=O)O)CC4)CC3)[nH]c3ncc(F)c(c23)-c2ccccc21",
    "pIC50": 7.20
  },
  {
    "MOLECULE": "CN1Cc2c(C3=CCN(CC(=O)N4CC(CO)C4)CC3)[nH]c3ncc(F)c(c23)-c2cc(F)ccc21",
    "pIC50": 7.05
  },
  {
    "MOLECULE": "CN1CCc2c(C3=CCN([C@H]4C[C@H](C(=O)O)C4)CC3)[nH]c3nccc(c23)-c2cc(F)ccc21",
    "pIC50": 6.80
  },
  {
    "MOLECULE": "CN(CCO)C(=O)CN1CCC(c2[nH]c3nccc4c3c2CN(C)c2ccc(F)cc2-4)CC1",
    "pIC50": 7.04
  },
  {
    "MOLECULE": "CN1Cc2c(C3=CCC(C(=O)O)CC3)[nH]c3nccc(c23)-c2cc(F)ccc21 (stereo not shown)",
    "pIC50": 6.82
  },
  {
    "MOLECULE": "CN(CC(O)CO)C(=O)CN1[C@H]2CC[C@@H]1C=C(c1[nH]c3nccc4c3c1CN(C)c1ccc(F)cc1-4)C2 (stereo partly shown)",
    "pIC50": 6.85
  },
  {
    "MOLECULE": "CN1Cc2c(C3=CCN4C(=O)OC[C@H]4C3)[nH]c3nccc(c23)-c2cc(F)ccc21",
    "pIC50": 7.18
  },
  {
    "MOLECULE": "CN1Cc2c(C3=CCN(CC(=O)N4CC(F)(F)C4)CC3)[nH]c3nccc(c23)-c2cc(F)ccc21",
    "pIC50": 7.20
  },
  {
    "MOLECULE": "CN1CCc2c(C3=CCN([C@H]4C[C@@H](C(=O)O)C4)CC3)[nH]c3nccc(c23)-c2cc(F)ccc21",
    "pIC50": 6.82
  },
  {
    "MOLECULE": "CN1Cc2c(-c3ccc(S(C)(=O)=O)nc3)[nH]c3nccc(c23)-c2cc(F)ccc21",
    "pIC50": 6.96
  },
  {
    "MOLECULE": "CS(=O)(=O)N1CC=C(c2[nH]c3nccc4c3c2COc2ccc(F)cc2-4)CC1",
    "pIC50": 7.03
  },
  {
    "MOLECULE": "CCC1c2c(C3=CCN(S(C)(=O)=O)CC3)[nH]c3nccc(c23)-c2cc(F)ccc2N1C (stereo not shown)",
    "pIC50": 6.92
  }
]
